Target: LGC-55 (Caenorhabditis elegans, UniProt G5EEC1)
Sequence (G5EEC1 17-538): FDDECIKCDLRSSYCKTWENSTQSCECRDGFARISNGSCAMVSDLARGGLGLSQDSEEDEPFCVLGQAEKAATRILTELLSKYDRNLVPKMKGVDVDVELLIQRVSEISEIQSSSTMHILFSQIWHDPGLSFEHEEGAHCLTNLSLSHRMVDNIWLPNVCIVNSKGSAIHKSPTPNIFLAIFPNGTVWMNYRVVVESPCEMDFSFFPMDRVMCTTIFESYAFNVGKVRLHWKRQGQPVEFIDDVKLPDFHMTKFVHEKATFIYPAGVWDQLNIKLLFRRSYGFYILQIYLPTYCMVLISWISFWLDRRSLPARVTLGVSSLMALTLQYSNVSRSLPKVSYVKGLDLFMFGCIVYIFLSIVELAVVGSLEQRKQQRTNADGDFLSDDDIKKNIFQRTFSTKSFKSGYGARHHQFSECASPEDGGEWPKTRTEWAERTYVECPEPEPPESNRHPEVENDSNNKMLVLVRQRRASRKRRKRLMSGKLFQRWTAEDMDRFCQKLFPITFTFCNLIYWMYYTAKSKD
Test: two-electrode voltage clamp, Xenopus oocytes
The compounds listed here are annotated with their EC50.
Give the value in µM but do not write µM after it.

Task: For the compound NC[C@H](O)c1ccc(O)cc1 [octopamine] , give its measured EC50 value.
Output: 215

Task: Identify measured EC50 corresponding to NCCc1ccc(O)cc1 [tyramine]
Output: 12.1

Task: Return the recorded EC50 value; entry: NCCc1ccc(O)c(O)c1 [dopamine]
Output: 159

Recorded values, source paper PMC2804440.
